target: Histamine H3 receptor (Homo sapiens); experiment: Antagonist activity at human recombinant histamine H3 receptor expressed in HEK293 cells assessed as inhibition of forskolin/(R)(-)-alpha-methylhistamine-induced cAMP accumulation after 1 hr by TR-FRET immunoassay
Sequence (Q9Y5N1 whole entry): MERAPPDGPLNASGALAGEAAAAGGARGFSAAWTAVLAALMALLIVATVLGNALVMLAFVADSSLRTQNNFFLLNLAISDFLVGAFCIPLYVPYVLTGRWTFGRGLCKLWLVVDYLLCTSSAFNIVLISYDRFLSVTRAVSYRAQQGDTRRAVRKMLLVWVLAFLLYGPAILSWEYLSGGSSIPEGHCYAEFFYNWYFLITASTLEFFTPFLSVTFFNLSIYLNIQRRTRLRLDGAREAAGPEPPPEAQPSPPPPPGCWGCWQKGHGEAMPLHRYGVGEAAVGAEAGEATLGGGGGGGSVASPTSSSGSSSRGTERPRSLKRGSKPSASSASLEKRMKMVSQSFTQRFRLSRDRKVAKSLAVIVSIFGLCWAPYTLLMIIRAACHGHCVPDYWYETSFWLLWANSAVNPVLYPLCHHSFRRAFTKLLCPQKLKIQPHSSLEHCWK
pEC50: −log10 of the molar value.
Measured pEC50, listed per entry.
property.label: pEC50

INSERT INTO assay_data (compound, property_label, test_value) VALUES
  ('Clc1ccc(OCCCCCCCN2CCCCC2)cc1.O=C(O)C(=O)O', 'pEC50', 7.12),
  ('CC1CCCN(CCCCCOc2ccc(Cl)cc2)C1.O=C(O)C(=O)O (configuration not stated)', 'pEC50', 7.14);
